# studySystem: T1, human LAP-TGFB1 Fc fusion (human)
# T1 construct: also called human LAP-TGFβ1-Fc; human LAP-TGFβ-Fc isoform 1
# T1 sequence (chain, as listed by the source limits assumed): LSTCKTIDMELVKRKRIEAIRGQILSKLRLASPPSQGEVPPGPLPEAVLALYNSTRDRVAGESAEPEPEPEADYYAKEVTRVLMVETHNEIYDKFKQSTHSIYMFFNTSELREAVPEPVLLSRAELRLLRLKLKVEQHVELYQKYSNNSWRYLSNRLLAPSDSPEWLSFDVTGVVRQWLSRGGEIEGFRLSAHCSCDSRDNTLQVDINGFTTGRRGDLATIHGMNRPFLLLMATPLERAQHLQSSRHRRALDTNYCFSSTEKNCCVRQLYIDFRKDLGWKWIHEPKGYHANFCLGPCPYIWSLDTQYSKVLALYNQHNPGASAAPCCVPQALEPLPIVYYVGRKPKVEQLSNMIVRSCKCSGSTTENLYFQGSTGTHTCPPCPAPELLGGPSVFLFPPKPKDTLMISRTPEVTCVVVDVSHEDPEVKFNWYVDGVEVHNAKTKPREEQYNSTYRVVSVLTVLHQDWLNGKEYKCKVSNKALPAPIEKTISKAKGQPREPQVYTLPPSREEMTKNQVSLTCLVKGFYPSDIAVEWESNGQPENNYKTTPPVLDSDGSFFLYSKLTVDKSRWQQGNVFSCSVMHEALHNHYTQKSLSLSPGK
# experimentNotes: SPR pH 6.0, antigen-Fc captured, Fab analyte
parameterMeasured: koff (s⁻¹)
// return numeric value only (unit: s⁻¹, not printed)

In the examples that follow, each entry is paired with its recorded koff.
| binder | valueUnit | observed |
| --- | --- | --- |
| 61BLH (Fab, V domains shown, also called 13BLM Fab) VH: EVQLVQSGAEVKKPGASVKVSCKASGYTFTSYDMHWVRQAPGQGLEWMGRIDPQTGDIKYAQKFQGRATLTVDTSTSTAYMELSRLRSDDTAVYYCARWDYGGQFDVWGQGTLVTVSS VL: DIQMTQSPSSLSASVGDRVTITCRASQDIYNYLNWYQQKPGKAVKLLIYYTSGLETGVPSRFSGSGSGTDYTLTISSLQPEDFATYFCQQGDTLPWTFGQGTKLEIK | s⁻¹ | 0.000121 |
| 63BLH (Fab, V domains shown, also called 15BLM Fab; 015BLM Fab) VH: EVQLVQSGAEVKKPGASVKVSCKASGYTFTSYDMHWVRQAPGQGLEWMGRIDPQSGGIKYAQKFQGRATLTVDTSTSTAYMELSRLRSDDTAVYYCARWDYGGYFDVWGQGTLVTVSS VL: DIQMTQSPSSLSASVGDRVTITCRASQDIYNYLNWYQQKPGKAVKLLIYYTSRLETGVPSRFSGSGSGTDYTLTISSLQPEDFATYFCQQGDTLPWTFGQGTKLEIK | s⁻¹ | 0.00277 |

Field: next binder
Data request: I would be grateful if you could share the reported koff for 57BLH (Fab, V domains shown, also called 09BLM Fab) VH: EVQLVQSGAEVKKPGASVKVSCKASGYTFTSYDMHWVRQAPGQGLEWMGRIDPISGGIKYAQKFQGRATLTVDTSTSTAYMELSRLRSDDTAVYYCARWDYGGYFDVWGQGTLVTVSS VL: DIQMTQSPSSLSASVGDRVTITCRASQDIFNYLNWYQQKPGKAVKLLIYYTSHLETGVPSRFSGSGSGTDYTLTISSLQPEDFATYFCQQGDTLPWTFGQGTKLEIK .
Data returned: 0.00159
